The reported numbers originate from patent US20080103158A1.

Assignment: determine reported melting point for the given compounds.

Please review the entries below; each comes with its answer.
compound="CC1(C)C(=O)N=C2C=CC=CN21 [Compound 33]" measuredmetric="melting point" endpointvalue="200 to 202 °C"
compound="O=C1N=C2C=CC=CN2C1(C1C=CCCC1)C1C=CCCC1 (stereo not shown) [Compound 67]" measuredmetric="melting point" endpointvalue="245 to 247 °C"
compound="N#Cc1ccc(CC2(Cc3ccc(C#N)cc3)C(=O)N=C3C=CC=CN32)cc1 [Compound 22]" measuredmetric="melting point" endpointvalue="294 °C (dec.)"
compound="CC1=CC=CN2C1=NC(=O)C2(Cc1ccncc1)Cc1ccncc1 [Compound 16]" measuredmetric="melting point" endpointvalue="228 to 230 °C"
compound="O=C1N=C2SC=CN2C1(Cc1cccs1)Cc1cccs1 [Compound 49]" measuredmetric="melting point" endpointvalue="286 °C (dec.)"
compound="O=C1N=C2CCCCN2C12Cc1cc3ccccc3cc1C2 [Compound 76]" measuredmetric="melting point" endpointvalue="252.5 °C (dec.)"
compound="O=C1N=C2C=CC(Cl)=CN2C1(Cc1ccccc1)Cc1ccccc1 [Compound 5]" measuredmetric="melting point" endpointvalue="246 to 248 °C"
compound="O=C1N=C2N=CC=CN2C12Cc1ccccc1C2 [Compound 63]" measuredmetric="melting point" endpointvalue="195.5 °C (dec.)"

The following compounds each have a reported value; give each one's melting point.
1. O=C1N=C2C=CC=CN2C12Cc1cc3nsnc3cc1C2 [Compound 61]
2. O=C1N=C2C(OCC3CC3)=CC=CN2C1(Cc1ccccc1)Cc1ccccc1 [Compound 4]

Ans:
86 to 88 °C
236 to 237 °C
